I'd appreciate it if you could supply IC50 values for the items below.
The reply should be a number in µM, with the unit left off.

Kindly state the measured IC50 obtained for CCN(CC)CCNc1ccc2ncn3c4ccc(O)cc4c(=O)c1c23 with yeast topoisomerase II (yTOPOII) (Saccharomyces cerevisiae). 16.6

Kindly state the measured IC50 obtained for CN(C)CCCNc1ccc2nnn3c4ccc(O)cc4c(=O)c1c23 with yeast topoisomerase II (yTOPOII) (Saccharomyces cerevisiae). 18.2

Kindly state the measured IC50 obtained for Cc1ccc2c(c1)c(=O)c1c(NCCCNC(=O)[C@@H](N)CCCCN)ccc3nnn2c31 with yeast topoisomerase II (yTOPOII) (Saccharomyces cerevisiae). 15.2

Kindly state the measured IC50 obtained for CCN(CC)CCCNc1ccc2nnn3c4ccc(C)cc4c(=O)c1c23 with yeast topoisomerase II (yTOPOII) (Saccharomyces cerevisiae). 13.3

Kindly state the measured IC50 obtained for COc1ccc2c(c1)c(=O)c1c(NCCCNC(=O)[C@@H](N)CCCCN)ccc3nnn2c31 with yeast topoisomerase II (yTOPOII) (Saccharomyces cerevisiae). 13.4

Kindly state the measured IC50 obtained for COc1ccc2c(c1)c(=O)c1c(NCCN)ccc3ncn2c31 with yeast topoisomerase II (yTOPOII) (Saccharomyces cerevisiae). 6.2

Source listed as paper PMC10864382.
